targetSystem: Sentrin-specific protease 7 (Homo sapiens)
procedureSummary: SENP7 protease inhibitors, primary screen, biochemical, luminescence, uHTS (AID 434973)
runConditions: recombinant SENP7, Z-RLRGG-aminoluciferin luminescence, 40 min; at 5 µM
In all, about 330,000 compounds went through this assay and about 4,900 (1.5%) were called active.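 The calls were made as follows: active = inhibition above about 50% at the single test dose (limit read from the data); inactive = the rest.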 What follows is part of a selection rich in actives, with near analogues and random picks from the rest.
Write down the outcome that applies. Available outcomes: true for active, false for inactive

Before answering, review these 4 worked examples.
[in] In this assay, the call recorded for O=[N+]([O-])c1cc(S(=O)(=O)CCCN2CCOCC2)ccc1F was what?
[out] false

[in] How did this test come out for COc1ccc(C2CC(=O)C=C(NCC3CCCO3)C2)cc1 (stereo unspecified) ?
[out] false

[in] Per the assay record, what outcome was assigned to O=C(COC(=O)C12CC3CC(CC(O)(C3)C1)C2)NC12CC3CC(CC(C3)C1)C2 ?
[out] false

[in] State the result this test recorded for O=C(OC1CCOC1=O)c1ccc(-c2nc3ccccc3s2)s1 (stereo unspecified) .
[out] true

Others:
[in] Entry CC(C)c1ccc(C(=O)OC2CCOC2=O)cc1 (stereo unspecified) : call = ?
[out] false

[in] Hi, sorry to bother you, what did the test record for CC1=NNC(=O)C1CCC(=O)N/N=C(\C)c1ccc(Cl)cc1 (stereo unspecified) ?
[out] false

Source listed as PubChem BioAssay AID434973.
